As shown below, each of these binders has a reported Kd value.
TARGET_SYSTEM: T1, CD3 immobilized on a sensor chip (Example 7)-1-2)
T1 construct: the text says only 'CD3 immobilized on a sensor chip'; also called human CD3
PROCEDURE_DETAILS: SPR (BIAcore T-200), CD3 immobilized, scFv injected at five concentrations; concentration giving 1/2 Rmax
Experimental: Five different concentrations of the scFv were injected into CD3 immobilized on a sensor chip. Rmax was estimated from the resulting response, and the antibody concentration that reached 1/2 thereof was defined as the dissociation constant of the scFv for CD3.

BINDER	Kd [nM]
C3E-7034 (humanized anti-CD3 scFv) (scFv) scFv: GEVQLVESGGGLVQPGGSLRLSCAASGVTFNYYGMSWIRQAPGKGLEWVASITNSGGRIYYPDSVKGRFTISRENTQKTLYLQMNSLRAEDTAVYYCTLDGRDGWVAYWGQGTLVTVSSGGGGSGGGGSGGGGSNFMLTQPHSVSESPGKTVTISCKRNTGNIGSNYVNWYQQHEGSSPTTIIYRDDKRPDGVSDRFSGSIDRSSKSASLTISNLKTEDEADYFCQSYSSGFIFGGGTKLTVLGAAAGAGGDYKDDDDKGAAAHHHHHH	4.5
C3E-7035 (humanized anti-CD3 scFv) (scFv) scFv: GEVQLVESGGGLVQPGGSLRLSCAASGVTFNYYGMSWIRQAPGKGLEWVASITNSGGRIYYPDSVKGRFTISRENTQKTLYLQMNSLRAEDTAVYYCTLDGRDGWVAYWGQGTLVTVSSGGGGSGGGGSGGGGSMAQAVLTQPSSVSGVPGQRVTISCKRNTGNIGSNYVNWYQQLPGTAPKLLIYRDDKRPSGVPDRFSGSKSGTSASLAITGFQAEDEADYYCQSYSSGFIFGGGTKLTVLGAAAGAGGDYKDDDDKGAAAHHHHHH	22
C3E-3007 scFv (humanized OKT3 scFv) (scFv) scFv: QVQLVQSGAESKKPGASVKVSCKASGYTFTRYTMHWVRQAPGQGLEWMGYINPSRGYTNYNQKFKDRVTITADKSTSTAYMELSSLRSEDTAVYYCARYYDDHYCLDYWGQGTLVTVSSGGGGSGGGGSGGGGSQIQMTQSPSSLAVSLGERATITCSASSSVSYMNWYQQKPGKAPKRWIYDTSKLASGVPDRFSGSGSGTDFTLTISSLQAEDVATYYCQQWSSNPFTFGQGTKVEIKRGASAAAGSGGDYKDDDDKGAAAHHHHHH	400
C3E-7036 (humanized anti-CD3 scFv) (scFv) scFv: GEVQLVESGGGLVQPGGSLRLSCAASGVTFNYYGMSWIRQAPGKGLEWVASITNSGGRIYYPDSVKGRFTISRENTQKTLYLQMNSLRAEDTAVYYCTLDGRDGWVAYWGQGTLVTVSSGGGGSGGGGSGGGGSNFMLTQPSSVSGVPGQRVTISCTGNTGNIGSNYVNWYQQLPGTAPKLLIYRDDKRPSGVPDRFSGSKSGTSASLAITGFQAEDEADYYCQSYSSGFIFGGGTKLTVLGAAAGAGGDYKDDDDKGAAAHHHHHH	25
